# Test system: Vero E6 infected with SARS-CoV-2
# Test Protocol: inhibition of SARS-CoV-2 cytopathic effect; higher = more antiviral protection, active = above 15
# Measurement Setup: 100 nM; 48 h
For each entry below, report its inhibition of SARS-CoV-2 cytopathic effect value.
One number for each entry, in %.

Past entries and their recorded results:
>  <Compound>
Oc1nc(O)c2cn[nH]c2n1 [oxypurinol]

>  <Value Units>
%

>  <Data Value>
-2.43

$$$$
>  <Compound>
CC1(N2CCC(n3c([C@@H]4CCCNC4)nc4ccccc43)CC2)CCCCCCC1

>  <Value Units>
%

>  <Data Value>
-0.65

$$$$
>  <Compound>
CCOC(=O)[C@]12CC1/C(=N\O)c1ccccc1O2 (stereo partly drawn)

>  <Value Units>
%

>  <Data Value>
-1.19

$$$$
>  <Compound>
O=C1[C@@H]2[C@H]3CC[C@H](C3)[C@@H]2C(=O)N1C[C@@H]1CCCC[C@H]1CN1CCN(c2nsc3ccccc23)CC1 [lurasidone]

>  <Value Units>
%

>  <Data Value>
1.73

$$$$
>  <Compound>
FC(F)(F)c1cccc(C2=CCN(CCc3ccc4ccccc4c3)CC2)c1 [xaliproden]

>  <Value Units>
%

>  <Data Value>
1.4

$$$$
>  <Compound>
CC[C@H]1[C@@H](O)[C@@H]2[C@H](CC[C@]3(C)[C@@H]([C@H](C)CCC(=O)O)CC[C@@H]23)[C@@]2(C)CC[C@@H](O)C[C@@H]12 [obeticholic-acid]

>  <Value Units>
%

>  <Data Value>
1.03

$$$$
>  <Compound>
O=C1NC(=O)[C@@H](c2cn3c4c(cccc24)CCC3)[C@@H]1c1c[nH]c2ccccc12 [tivantinib]

>  <Value Units>
%

>  <Data Value>
-2.57

$$$$

Problem: Please report the measured inhibition of SARS-CoV-2 cytopathic effect for CCN(c1cc(-c2ccc(CN3CCOCC3)cc2)cc(C(=O)NCc2c(C)cc(C)[nH]c2=O)c1C)C1CCOCC1 [tazemetostat] tested on Vero E6 infected with SARS-CoV-2.
Result: 3.47

----------
Exercise: for every item that follows, state its recorded inhibition of SARS-CoV-2 cytopathic effect.
# Test system: Vero E6 infected with SARS-CoV-2
# Test Protocol: inhibition of SARS-CoV-2 cytopathic effect; higher = more antiviral protection, active = above 15
# Measurement Setup: 10000 nM; 48 h
Numbers only, in %.

Answered cases to consult:
>  <Compound>
NC(=O)C[S+]([O-])C(c1ccccc1)c1ccccc1 (stereo unspecified)

>  <Value Units>
%

>  <Data Value>
-3.77

$$$$
>  <Compound>
O=C1NCCNC1c1cccs1 (stereo unspecified)

>  <Value Units>
%

>  <Data Value>
-1.68

$$$$
>  <Compound>
CCOC(=O)[C@H]1O[C@@H]1C(=O)N[C@@H](CC(C)C)C(=O)NCCC(C)C

>  <Value Units>
%

>  <Data Value>
11.2

$$$$
>  <Compound>
COc1cc(C#N)ccc1S(=O)(=O)Nc1ccc2c(c1)cc(C)c(=O)n2C

>  <Value Units>
%

>  <Data Value>
-0.1

$$$$
>  <Compound>
N[C@@H]1CCN(c2cccnc2)C1

>  <Value Units>
%

>  <Data Value>
3.85

$$$$

Here's the next entry for you.
Problem: Give the reported value of inhibition of SARS-CoV-2 cytopathic effect for this record: O=C(Nc1ccc(S(=O)(=O)Nc2ccccc2Cl)c(Cl)c1)c1ccccn1
Result: 0.25

FYI, the data here is from the supplement of paper PMC13380429.
